System: 439559-082-T-J2-PDC spheroids viability
Assay: Anticancer human tumor 439559-082-T-J2-PDC patient-derived colon adenocarcinoma cell line growth inhibition [GQUAD]
Details: second compound 0.0316 µM; first compound 0.00999 µM; stronger effect = lower value
Rule: viability, T/C below 90% gives yes (1), anything at or above gives no (0).

INSERT INTO results (molecule, assay_target, qualitative_label) VALUES
  ('CC[C@@]1(O)C(=O)OCc2c1cc1n(c2=O)Cc2cc3c(CN(C)C)c(O)ccc3nc2-1 + CN(C)c1ccc(Nc2c3ccc(NC(=O)CCN4CCCC4)cc3nc3cc(NC(=O)CCN4CCCC4)ccc23)cc1', '439559-082-T-J2-PDC spheroids viability', 'no (0)'),
  ('CC[C@@]1(O)C(=O)OCc2c1cc1n(c2=O)Cc2cc3c(CN(C)C)c(O)ccc3nc2-1 + Cc1[nH]c2ccc(F)cc2c1-c1nc2c3cccnc3c3ncccc3c2[nH]1', '439559-082-T-J2-PDC spheroids viability', 'no (0)'),
  ('CC[C@@]1(O)C(=O)OCc2c1cc1n(c2=O)Cc2cc3c(CN(C)C)c(O)ccc3nc2-1 + Cc1cnc(CNC(=O)c2c(=O)c3ccc(N4CCCN(C)CC4)nc3n3c2sc2ccccc23)cn1', '439559-082-T-J2-PDC spheroids viability', 'no (0)'),
  ('CCc1c2c(nc3ccc(O)cc13)-c1cc3c(c(=O)n1C2)COC(=O)[C@]3(O)CC + CN(C)c1ccc(Nc2c3ccc(NC(=O)CCN4CCCC4)cc3nc3cc(NC(=O)CCN4CCCC4)ccc23)cc1', '439559-082-T-J2-PDC spheroids viability', 'yes (1)');

* * *

System: 439559-082-T-J2-PDC spheroids viability
Test: Anticancer human tumor 439559-082-T-J2-PDC cell line growth inhibition [GQUAD];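 further: spheroids exposed to the agents for 7 days before readout; percent of luminescence signal in DMSO vehicle wells taken as 100% viability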
Settings: second compound 0.316 µM; first compound 10 µM; stronger effect = lower value
REPORTED PROPERTY: viability, T/C (%)

INSERT INTO assay_data (compound, assay_target, obs_value) VALUES
  ('CC1COCCN1c1cc(C2(O)CC3CCC(C2)O3)c2cnn(-c3ccn[nH]3)c2n1 (stereo unspecified) + CN(C)c1ccc(Nc2c3ccc(NC(=O)CCN4CCCC4)cc3nc3cc(NC(=O)CCN4CCCC4)ccc23)cc1', '439559-082-T-J2-PDC spheroids viability', 30.3),
  ('C#Cc1c(F)ccc2cc(O)cc(-c3ncc4c(N5CC6CCC(C5)N6)nc(OCC56CCCN5CC(F)C6)nc4c3F)c12 (stereo unspecified) + Cc1cnc(CNC(=O)c2c(=O)c3ccc(N4CCCN(C)CC4)nc3n3c2sc2ccccc23)cn1', '439559-082-T-J2-PDC spheroids viability', 45.2),
  ('CC(C)n1c(=O)n(C)c2cnc3cc(F)c(-c4ccc(OCCCN5CCCCC5)nc4)cc3c21 + Cc1[nH]c2ccc(F)cc2c1-c1nc2c3cccnc3c3ncccc3c2[nH]1', '439559-082-T-J2-PDC spheroids viability', 96.4),
  ('Cc1cccc(N(C)C(=O)C2C(O)CCN2c2nc(C)cc(C(F)(F)F)c2C#N)c1 (stereo unspecified) + Cc1cnc(CNC(=O)c2c(=O)c3ccc(N4CCCN(C)CC4)nc3n3c2sc2ccccc23)cn1', '439559-082-T-J2-PDC spheroids viability', 84.3),
  ('C=CCn1c(=O)c2cnc(Nc3ccc(N4CCN(C)CC4)cc3)nc2n1-c1cccc(C(C)(C)O)n1 + Cc1[nH]c2ccc(F)cc2c1-c1nc2c3cccnc3c3ncccc3c2[nH]1', '439559-082-T-J2-PDC spheroids viability', 38.6),
  ('Nc1ccn(C2OC(CO)C(O)C2(F)F)c(=O)n1 (stereo unspecified) + Cc1cnc(CNC(=O)c2c(=O)c3ccc(N4CCCN(C)CC4)nc3n3c2sc2ccccc23)cn1', '439559-082-T-J2-PDC spheroids viability', 19.2),
  ('COc1cccc2c1C(=O)c1c(O)c3c(c(O)c1C2=O)CC(O)(C(=O)CO)CC3OC1CC(N)C(O)C(C)O1 (stereo unspecified) + Cc1[nH]c2ccc(F)cc2c1-c1nc2c3cccnc3c3ncccc3c2[nH]1', '439559-082-T-J2-PDC spheroids viability', 50.8),
  ('CC1COCCN1c1cc(C2(O)CC3CCC(C2)O3)c2cnn(-c3ccn[nH]3)c2n1 (stereo unspecified) + Cc1[nH]c2ccc(F)cc2c1-c1nc2c3cccnc3c3ncccc3c2[nH]1', '439559-082-T-J2-PDC spheroids viability', 37.3),
  ('CC1COCCN1c1cc(-c2ccnn2C)c2ccnc(-c3ccn[nH]3)c2n1 (stereo unspecified) + Cc1cnc(CNC(=O)c2c(=O)c3ccc(N4CCCN(C)CC4)nc3n3c2sc2ccccc23)cn1', '439559-082-T-J2-PDC spheroids viability', 24.4),
  ('COc1cccc2c1C(=O)c1c(O)c3c(c(O)c1C2=O)CC(O)(C(=O)CO)CC3OC1CC(N)C(O)C(C)O1 (stereo unspecified) + Cc1cnc(CNC(=O)c2c(=O)c3ccc(N4CCCN(C)CC4)nc3n3c2sc2ccccc23)cn1', '439559-082-T-J2-PDC spheroids viability', 45.9),
  ('CC(=O)O[C@H]1C(=O)[C@@]2(C)[C@H]([C@H](OC(=O)c3ccccc3)[C@]3(O)C[C@H](OC(=O)[C@H](O)[C@@H](NC(=O)c4ccccc4)c4ccccc4)C(C)=C1C3(C)C)[C@]1(OC(C)=O)CO[C@@H]1C[C@@H]2O + CN(C)c1ccc(Nc2c3ccc(NC(=O)CCN4CCCC4)cc3nc3cc(NC(=O)CCN4CCCC4)ccc23)cc1', '439559-082-T-J2-PDC spheroids viability', 30.7),
  ('CC1COCCN1c1cc(-c2ccnn2C)c2ccnc(-c3ccn[nH]3)c2n1 (stereo unspecified) + Cc1[nH]c2ccc(F)cc2c1-c1nc2c3cccnc3c3ncccc3c2[nH]1', '439559-082-T-J2-PDC spheroids viability', 30.2),
  ('O=C(c1cc(Cc2n[nH]c(=O)c3ccccc23)ccc1F)N1CCN(C(=O)C2CC2)CC1 + Cc1[nH]c2ccc(F)cc2c1-c1nc2c3cccnc3c3ncccc3c2[nH]1', '439559-082-T-J2-PDC spheroids viability', 89.9),
  ('CC1COCCN1c1cc(-c2ccnn2C)c2ccnc(-c3ccn[nH]3)c2n1 (stereo unspecified) + CN(C)c1ccc(Nc2c3ccc(NC(=O)CCN4CCCC4)cc3nc3cc(NC(=O)CCN4CCCC4)ccc23)cc1', '439559-082-T-J2-PDC spheroids viability', 24.2),
  ('O=C(NO)c1cnc(N2CCN(S(=O)(=O)c3ccc4ccccc4c3)CC2)nc1 + Cc1[nH]c2ccc(F)cc2c1-c1nc2c3cccnc3c3ncccc3c2[nH]1', '439559-082-T-J2-PDC spheroids viability', 30.8),
  ('C#Cc1c(F)ccc2cc(O)cc(-c3ncc4c(N5CC6CCC(C5)N6)nc(OCC56CCCN5CC(F)C6)nc4c3F)c12 (stereo unspecified) + Cc1[nH]c2ccc(F)cc2c1-c1nc2c3cccnc3c3ncccc3c2[nH]1', '439559-082-T-J2-PDC spheroids viability', 7.52),
  ('O=c1[nH]cc(F)c(=O)[nH]1 + Cc1cnc(CNC(=O)c2c(=O)c3ccc(N4CCCN(C)CC4)nc3n3c2sc2ccccc23)cn1', '439559-082-T-J2-PDC spheroids viability', 66),
  ('O=C(c1cc(Cc2n[nH]c(=O)c3ccccc23)ccc1F)N1CCN(C(=O)C2CC2)CC1 + Cc1cnc(CNC(=O)c2c(=O)c3ccc(N4CCCN(C)CC4)nc3n3c2sc2ccccc23)cn1', '439559-082-T-J2-PDC spheroids viability', 78.8),
  ('Nc1ccn(C2OC(CO)C(O)C2(F)F)c(=O)n1 (stereo unspecified) + Cc1[nH]c2ccc(F)cc2c1-c1nc2c3cccnc3c3ncccc3c2[nH]1', '439559-082-T-J2-PDC spheroids viability', 23.7),
  ('COc1ccc([C@@H](O)c2cc(-c3ncnc4cc(N5CCOCC5)ccc34)c(F)cc2Cl)nn1 + Cc1[nH]c2ccc(F)cc2c1-c1nc2c3cccnc3c3ncccc3c2[nH]1', '439559-082-T-J2-PDC spheroids viability', 75.9),
  ('CC1COCCN1c1cc(C2(S(C)(=N)=O)CC2)nc(-c2ccnc3[nH]ccc23)n1 (stereo unspecified) + Cc1[nH]c2ccc(F)cc2c1-c1nc2c3cccnc3c3ncccc3c2[nH]1', '439559-082-T-J2-PDC spheroids viability', 71.3);
